METHOD_NOTES: Cytotoxicity determination in HepG2.2.15 cells (CCK-8 cell viability)
Type: cell-based
EXPERIMENTAL_CONDITIONS: human, 6 days treatment, CCK-8 assay, highest concentration 100 uM
MEASUREMENT_TYPE: CC50 at 6 days (µM)
Number in µM, nothing else.

Prompt: Fill in: CC50 at 6 days of [H][C@]1(N2CC[C@H]3[C@@H]2C(F)(F)CN3CC2=C(C(=O)OC)[C@H](c3cccc(F)c3F)N=C(c3nccs3)N2)C[C@@]2(C[C@@H](C(=O)O)C2)C1 (single isomer, unassigned) [Compound 120A] is ___
Completion: 28.1

Prompt: Now the same for CCOC(=O)C1=C(CN2CC(F)(F)[C@@H]3[C@H]2CN(C(=O)C(F)F)N3CCC(C)(C)C(=O)O)NC(c2nccs2)=N[C@H]1c1cccc(F)c1C (single isomer, unassigned) [Compound 75]
Completion: 22.6

Prompt: Can you handle CCOC(=O)C1=C(CN2CC(F)(F)[C@H]3CN([C@H](C)C(=O)O)C[C@H]32)NC(c2nccs2)=N[C@H]1c1cccc(F)c1C (single isomer, unassigned) [Compound 14E] next?
Completion: 85.3

Prompt: Likewise for CCOC(=O)C1=C(CN2CC(F)(F)[C@H]3[C@@H]2CCN3C(=O)[C@H]2CC[C@H](C(=O)O)CC2)NC(c2nccs2)=N[C@H]1c1cccc(F)c1C (single isomer, unassigned) [Compound 30] ?
Completion: 28

Prompt: # repeat for CCOC(=O)C1=C(CN2CCC3C(=O)N(CC(C)(C)C(=O)O)C(=O)C32)NC(c2nccs2)=N[C@H]1c1cccc(F)c1C (stereo partly shown) [Compound 4]
Completion: 47.8

Prompt: Moving on to CCOC(=O)C1=C(CN2CC(F)(F)[C@@H]3CN([C@H]4CC[C@@H](C(=O)O)CC4)C(=O)[C@@H]32)NC(c2nccs2)=N[C@H]1c1cccc(F)c1C (single isomer, unassigned) [Compound 185A]
Completion: 48.3

Prompt: Follow-up entry: COC(=O)C1=C(CN2CC(F)(F)[C@H]3[C@@H]2CCN3C[C@@H](C)C(=O)O)NC(c2nccs2)=N[C@H]1c1ccc(F)c(F)c1Cl (single isomer, unassigned) [Compound 134A]
Completion: 26.9

====

Items are presented alongside their recorded EC50.
System: HBV
METHOD_NOTES: Anti-HBV activity in HepG2.2.15 cells (HBV DNA in culture medium by qPCR)
Type: cell-based
EXPERIMENTAL_CONDITIONS: Hepatitis B virus, HepG2.2.15, 144 h, HepG2.2.15 cells, 6 days treatment, HBV DNA in culture medium quantified by real-time PCR; read-out: EC50
Please give a number only; it is taken to be in nM.

Examples with their reported EC50 follow.
INSERT INTO results (molecule, measurement_type, result_value) VALUES
  ('CCOC(=O)C1=C(CN2CC(F)(F)[C@H]3[C@@H]2CCN3C(N)=O)NC(c2nccs2)=N[C@H]1c1cccc(F)c1C (single isomer, unassigned)', 'EC50', 30.1),
  ('COC(=O)C1=C(CN2CC(F)(F)[C@@H]3C(=O)N(CC(C)(C)C(=O)O)C[C@@H]32)NC(c2nccs2)=N[C@H]1c1cccc(F)c1Cl (single isomer, unassigned)', 'EC50', 13.5),
  ('CCOC(=O)C1=C(CN2CC(F)(F)[C@@H]3[C@H]2CN(C)N3CCC(C)(C)C(=O)O)NC(c2nccs2)=N[C@H]1c1cccc(F)c1C (relative stereo) [Compound 68A]', 'EC50', 7.4),
  ('CCOC(=O)C1=C(CN2CC(F)(F)[C@H]3[C@@H]2CCN3CC23CC(C(=O)O)(C2)C3)NC(c2nccs2)=N[C@H]1c1cccc(F)c1C (single isomer, unassigned)', 'EC50', 0.7),
  ('CCOC(=O)C1=C(CN2CC(F)(F)[C@H]3[C@@H]2CCN3CCC(C)(C)C(=O)O)NC(c2nccn2C)=N[C@H]1c1cccc(F)c1C (single isomer, unassigned)', 'EC50', 13.1),
  ('CCOC(=O)C1=C(CN2CC(F)(F)[C@H]3[C@@H]2CCN3CCC(C)(C)c2nnn[nH]2)NC(c2nccs2)=N[C@H]1c1cccc(F)c1C (single isomer, unassigned)', 'EC50', 0.4);

Now turn to the next molecule.
Prompt: Which EC50 is listed for CCOC(=O)C1=C(CN2CC[C@H]3C(=O)N(CC(C)(C)C(=O)O)C(=O)[C@H]32)NC(c2nccs2)=N[C@H]1c1cccc(F)c1C (relative stereo) ?
Completion: 6.3
